target: Glutamate NMDA receptor; assay: Negative allosteric modulator activity at NMDA receptor in Wistar rat hippocampal CA1 neuronal membrane assessed as inhibition of NMDA and glycine induced current response by whole-cell patch clamp technique; format: cell membranes; details: hippocampal ca1 neurone
Outcome measure: IC50 (µM)

Molecule	Outcome measure	Relation	Meas value
NC(COc1cccc(O)c1)c1ccc(-c2ccccc2)cc1 (stereo not drawn)	IC50	=	5
CS(=O)(=O)Nc1cccc(NCC(O)c2ccc(-c3ccccc3)cc2)c1 (stereo not drawn)	IC50	=	0.1
OC(CNc1ccccc1)c1ccc(-c2ccccc2)cc1 (stereo not drawn)	IC50	>	30

* * *

molecular target: Glutamate NMDA receptor; test: Negative allosteric modulator activity at NMDA receptor in Wistar rat hippocampal CA1 neuronal membrane assessed as inhibition of NMDA and glycine induced current response by whole-cell patch clamp technique; format: cell membranes; conditions: hippocampal ca1 neurone
pIC50: −log10 of the molar value.
Reported pIC50 by item:

Compound	pIC50
CCNc1cccc(NCC(O)c2ccc(-c3ccccc3)cc2)c1 (stereo not drawn)	< 4.52
Oc1ccc(OCC(O)c2ccc(-c3ccccc3)cc2)cc1 (stereo not drawn)	< 4.52
OC(COc1ccccc1)c1ccc(-c2ccccc2)cc1 (stereo not drawn)	< 4.52
